# measuredTarget: CCR2 (Homo sapiens, UniProt P41597)
# Construct: Membranes were prepared from THP-1 cells; endogenous in cells
# Sequence (P41597 whole entry): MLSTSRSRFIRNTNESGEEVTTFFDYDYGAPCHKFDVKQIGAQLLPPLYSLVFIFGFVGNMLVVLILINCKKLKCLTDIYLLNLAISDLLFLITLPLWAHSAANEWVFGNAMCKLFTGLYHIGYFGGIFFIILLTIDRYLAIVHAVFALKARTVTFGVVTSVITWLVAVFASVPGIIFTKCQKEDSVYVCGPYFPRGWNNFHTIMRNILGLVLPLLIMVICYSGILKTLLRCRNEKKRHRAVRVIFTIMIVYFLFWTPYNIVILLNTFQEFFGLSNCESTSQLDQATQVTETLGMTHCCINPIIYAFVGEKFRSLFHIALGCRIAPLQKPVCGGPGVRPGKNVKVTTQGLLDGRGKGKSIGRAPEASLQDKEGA
# experimentalProtocol: CCR2 receptor membrane binding assay ([125I]MCP-1, THP-1 cell membranes, SPA beads)
# conditionSet: THP-1 membranes, [125I]MCP-1, bound radioactivity determined after 8 h; read-out: hKi
pKi: −log10 of the molar value.
propertyLabel: pKi

Here are 6 compounds together with their reported answers.
COC1COCCC1NC1CCN(C(=O)c2ncnc(N3CCC4(CCc5ccccc54)CC3)c2C)CC1 (stereo not drawn) [Example 62] | 6.23
Cc1c(C(=O)N2CCC(N3CCCC(O)C3)CC2)ncnc1N1CCc2ccc(C(F)(F)F)cc2C1 (stereo not drawn) [Example 77] | 6.39
COC1COCCC1NC1CCN(C(=O)c2ncnc(N3CCOC(c4ccccc4)C3)c2C)CC1 (stereo not drawn) [Example 5] | 5.38
Cc1c(C(=O)N2CCC(N3CCC(N(C)S(C)(=O)=O)CC3)CC2)ncnc1N1CCC(c2ccc(Cl)cc2)CC1 [Example 26] | 5.71
COC1COCCC1NC1CCN(C(=O)c2ncnc(N3CCC(c4cccc(C(F)(F)F)c4)C3)c2C)CC1 (stereo not drawn) [Example 52] | 6.57
Cc1c(C(=O)N2CCC(N3CCCCC3)CC2)ncnc1N1CCc2ccc(C(F)(F)F)cc2C1 [Example 80] | 7.00

[P] CO[C@H]1COCC[C@H]1N(C)C1CCN(C(=O)c2ncnc(N3CCc4ccc(C(F)(F)F)cc4C3)c2C)CC1 [Example 84]
[Q] Cc1c(C(=O)N2CCC(N3CCC(N(C)S(C)(=O)=O)CC3)CC2)ncnc1-n1ccc2cc(C(F)(F)F)ccc21 [Example 69g]
[R] Cc1c(C(=O)N2CCC(N3CCC(N(C)S(C)(=O)=O)CC3)CC2)ncnc1N1CCC(c2ccccc2)CC1 [Example 28]
[S] COC1COCCC1NC1CCN(C(=O)c2ncnc(N3CCc4ncc(C(F)(F)F)cc4C3)c2C)CC1 (stereo not drawn) [Example 61]
hey, can you rank those compounds up there by pKi? biggest number first please List each label, following the requested order.
P, S, Q, R
(P: 7.39, S: 6.51, Q: 5.89, R: 5.43)

[1] Cc1c(C(=O)N2CCC(N3CCC(N(C)S(C)(=O)=O)CC3)CC2)ncnc1N1CCC(c2ccc(Cl)cc2)C1 (stereo not drawn) [Example 47]
[2] COC1COCCC1NC1CCN(C(=O)c2ncnc(N3CCN(c4ccc(C(F)(F)F)cc4)CC3)c2C)CC1 (stereo not drawn) [Example 62p]
[3] COC1COCCC1NC1CCN(C(=O)c2ncnc(N3CCN(c4cccc(C)c4C)CC3)c2C)CC1 (stereo not drawn) [Example 62ah]
Arrange the 3 entries by pKi so the values rise. Order the labels as requested and give them as your answer.
1, 2, 3

###

# measuredTarget: CCR2 (Homo sapiens)
# Construct: Membranes were prepared from THP-1 cells; endogenous in cells
# experimentalProtocol: CCR2 receptor membrane binding assay ([125I]MCP-1, THP-1 cell membranes, SPA beads)
# conditionSet: THP-1 membranes, [125I]MCP-1, bound radioactivity determined after 8 h; read-out: hKi
pKi: −log10 of the molar value.
propertyLabel: pKi

CCN(CC)C1CCN(C(=O)c2ncnc(N3CCc4ccc(C(F)(F)F)cc4C3)c2C)CC1 | 6.26
Cc1ccc(C2CCN(c3ncnc(C(=O)N4CCC(N5CCC(N(C)S(C)(=O)=O)CC5)CC4)c3C)CC2)cc1 | 5.89
COC1COCCC1NC1CCN(C(=O)c2ncnc(N3CCC(c4ccccc4F)C3)c2C)CC1 (stereo not drawn) | 6.39
Cc1c(C(=O)N2CCC(N3CCC(N(C)S(C)(=O)=O)CC3)CC2)ncnc1N1CCC2(C=Cc3ccccc32)CC1 | 5.67

[A] COC1COCCC1NC1CCN(C(=O)c2ncnc(N3CC4CC4(c4cc(C(F)(F)F)cc(C(F)(F)F)c4)C3)c2C)CC1 (stereo not drawn) [Example 62c]
[B] COC1COCCC1NC1CCN(C(=O)c2ncnc(N3CCc4ccc(Cl)cc4C3)c2C)CC1 (stereo not drawn)
[C] COC1COCCC1NC1CCN(C(=O)c2ncnc(N3CCN(c4cccc(C(F)(F)F)c4)CC3)c2C)CC1 (stereo not drawn)
[D] COC1COCCC1NC1CCN(C(=O)c2ncnc(N3CCCC(c4cccc(C(F)(F)F)c4)C3)c2C)CC1 (stereo not drawn)
Hi! Can you put these in order of pKi, lowest number first? Give the labels in the order requested.
D, A, C, B
